Where do the numbers come from? From PubChem BioAssay (Tox21).

test-description: qHTS assay to identify aromatase inhibitors - cell viability counter screen (AID 743084);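 also: cells stimulated with testosterone during compound exposure; nearly all actives have a fitted effect of over 55% in size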
test-conditions: MCF-7 aro ERE viability, CellTiter-Fluor, 24 h; series mostly up to 70.3 µM
Records with an inconclusive call do not appear. Activity calls are given as the source filed them. Calls follow the shape of the dose curve; as a rule, active = well fitted cell-killing curve with a large enough effect in the repeat runs; inconclusive = weak or mixed curves, or effect the other way; inactive = no such curve, though single readings can be large or run the other way.
Lab note: assign the record to one of active, inactive

O=c1c(O)c(-c2ccc(O)cc2)oc2cc(O)cc(O)c12    inactive
CC(C)(O)c1ccc(CNC(=O)c2cccnc2Oc2ccc3nonc3c2)cc1    inactive
O=Cc1c2ccccc2c(Cl)c2ccccc12    inactive
C=CC(=O)[O-].C=CC(=O)[O-].[Zn+2]    inactive
COc1cc(C(=O)NC2CCN(C)CC2)ccc1Nc1ncc2c(n1)N(C1CCCC1)CC(F)(F)C(=O)N2C    active

Prompt line: What call does the record list for CN(C)CCN1C(=O)c2ccccc2N(C)c2ccccc21 ?
Response line: inactive

Prompt line: Could you kindly confirm the outcome this assay logged for c1csc(SSc2cccs2)c1 ?
Response line: inactive

---

target-or-system: Estrogen receptor (Homo sapiens) (UniProt P03372)
Sequence (P03372 whole entry, looked up): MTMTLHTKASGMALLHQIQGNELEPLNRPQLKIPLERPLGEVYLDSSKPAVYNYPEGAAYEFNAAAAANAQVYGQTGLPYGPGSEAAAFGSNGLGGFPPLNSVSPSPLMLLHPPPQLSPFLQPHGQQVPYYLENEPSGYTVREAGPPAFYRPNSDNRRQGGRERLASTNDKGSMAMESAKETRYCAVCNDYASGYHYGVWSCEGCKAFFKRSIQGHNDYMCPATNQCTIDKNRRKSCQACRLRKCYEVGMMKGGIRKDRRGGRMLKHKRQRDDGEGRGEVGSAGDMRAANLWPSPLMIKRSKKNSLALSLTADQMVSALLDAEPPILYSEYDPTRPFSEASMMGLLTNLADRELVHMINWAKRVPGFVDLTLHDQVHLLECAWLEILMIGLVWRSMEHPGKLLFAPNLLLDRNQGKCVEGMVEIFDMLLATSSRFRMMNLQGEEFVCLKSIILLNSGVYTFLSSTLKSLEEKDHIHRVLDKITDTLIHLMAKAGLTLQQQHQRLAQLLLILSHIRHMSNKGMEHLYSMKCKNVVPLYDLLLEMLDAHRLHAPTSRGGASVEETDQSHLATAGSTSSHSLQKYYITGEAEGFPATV
test-description: qHTS assay to identify small molecule antagonists of the estrogen receptor alpha (ER-alpha) signaling pathway using the BG1 cell line in the presence of 0.1 nM 17-beta-estradiol (AID 1259244); also: nearly all actives have a fitted effect of over 50% in size
test-conditions: VM7Luc4E2 (BG1) ERE-luciferase, antagonist mode, 0.1 nM E2, 22 h; series mostly up to 92.4 µM
Description: National Center for Advancing Translational Sciences [NCATS] NIH Chemical Genomics Center [NCGC] U.S. Environmental Protection Agency [EPA] National Institutes of Environmental Health Sciences [NIEHS] National Toxicology Program [NTP] U.S. Food and Drug Administration [FDA] Estrogen receptor (ER), a member of the nuclear hormone receptor plays an important role in development, metabolic homeostasis and reproduction. […]
Inconclusive results are not listed. The source made the active and inactive calls. Calls come from the whole dose curve; as a rule, active = well fitted inhibition curve with a large enough effect in the repeat runs; inconclusive = weak or mixed curves; inactive = no such curve, though single readings can be large or run the other way.
Can you answer with just one of these options? active, inactive

Prompt line: Assay result, entry O=[N+]([O-])c1cc(C2CCCCC2)c(O)c([N+](=O)[O-])c1 — outcome?
Response line: active

---

test-description: qHTS RealTime-Glo MT Cell Viability Assay in HepG2 cells - 40 hour (AID 1224870); also: nearly all actives have a fitted effect of over 50% in size
test-conditions: RealTime-Glo luminescence; series mostly up to 76.8 µM
Excerpt: National Center for Advancing Translational Sciences [NCATS] NIH Chemical Genomics Center [NCGC] U.S. Environmental Protection Agency [EPA] National Institutes of Environmental Health Sciences [NIEHS] National Toxicology Program [NTP] U.S. Food and Drug Administration [FDA] Measure of cell viability is critical in the cell-base assay. Analysis of cell viability is necessary for the characterization of cell responses to cytotoxic drugs and environmental stress. […]
Results filed as inconclusive are left out. Calls of active or inactive are those of the source. The call rests on the fitted dose curve; in most records, active means well fitted cell-killing curve with a large enough effect in the repeat runs; inconclusive means weak or mixed curves, or effect the other way; inactive means flat fitted curve, though single readings scatter.
Can you answer with just one of these options? active, inactive

O=C1c2ccccc2C(=O)c2c(O)c(O)cc(O)c21    inactive
c1ccc2c(c1)CCc1ccccc1N2    inactive
CCOC(C)=O    inactive

Prompt line: In this assay, the call recorded for C[C@@H](O)[C@H]1C(=O)N2C(C(=O)O)=C([C@H]3CCCO3)S[C@H]12 was what?
Response line: inactive

Prompt line: For CCOC(=O)c1ccccc1C(=C1C=C(Br)C(=O)C(Br)=C1)c1cc(Br)c(O)c(Br)c1 , what call appears in the results of this test?
Response line: inactive

Prompt line: What did the test return for CC(C)C[C@H](NC(=O)[C@H](CCc1ccccc1)NC(=O)CN1CCOCC1)C(=O)N[C@@H](Cc1ccccc1)C(=O)N[C@@H](CC(C)C)C(=O)[C@@]1(C)CO1 ?
Response line: active

Prompt line: Assay outcome for CCOC(=O)/C=C/C(=O)OCC : what was it?
Response line: inactive
